- ASSAY DETAILS: Mouse blood levels after intramuscular administration
- Assay type: in vivo
- TEST SETTINGS: 90 minutes after IM 40 mg/kg, average of 6 mice, read-out: Mouse blood level
Give concentration at 1.5 h for every item shown.
// return numeric value only (unit: ng/mL, not printed)

Item NCCCCC1=C(C(=O)O)N2C(=O)CC2S1 (stereo not drawn) [Example 73] has what recorded concentration at 1.5 h? 3400

Would you mind telling me what concentration at 1.5 h value was observed for NCCCC1=C(C(=O)O)N2C(=O)CC2S1 (stereo not drawn) [Example 22, Sodium 2-Aminopropylpenem-3-carboxylate] ? 5700

Which concentration at 1.5 h reading was recorded for the molecule C[C@@H](O)[C@H]1C(=O)N2C(C(=O)O)=C([C@H]3C[C@H](N)C3)S[C@H]12 (relative stereo) [Example 65] ? 3600
